From: patent US20250154277A1

Catalogue of koff values
# targetEntity: T1, human 5T4-His protein (human, UniProt Q13641 32-355)
# T1 construct: also called recombinant 5T4 protein (human 5T4-his tag); human 5T4 protein; not shown: His tag
# T1 sequence (looked up): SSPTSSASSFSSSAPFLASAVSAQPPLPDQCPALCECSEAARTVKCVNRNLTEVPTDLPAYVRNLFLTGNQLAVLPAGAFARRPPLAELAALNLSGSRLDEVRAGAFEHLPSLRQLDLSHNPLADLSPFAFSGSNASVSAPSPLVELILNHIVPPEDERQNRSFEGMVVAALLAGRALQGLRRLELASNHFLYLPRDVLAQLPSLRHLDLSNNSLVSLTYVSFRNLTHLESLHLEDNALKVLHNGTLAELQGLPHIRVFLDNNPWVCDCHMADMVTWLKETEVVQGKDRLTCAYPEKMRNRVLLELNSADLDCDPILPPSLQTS
# methodSummary: SPR Biacore, Protein A capture, 50 nM 5T4-His
Answer with the number, then the unit.

# binder, koff
rows = [
    ("159D5 chimeric antibody (antibody, V domains shown, chimeric mAb) VH: DVQLVESGGGLVQPGGSRKLSCTASGFTFSNFGMHWVRQAPETGLEWVAYISSGSSTFYYADSVKGRFTISRDNPKNTLFLQMTSLRSEDTAMYFCARSPAYYRYGLDYWGQGTTLTVSS VL: DIVLTQSPASLAVSLGQRATISCRASQSVSSSTFSYMHWYQQKPGQPPKLLIKSSSNLESGVPARFSGSGSGTDFTLNIHPVEEEDTATYYCQHSWEIPYTFGGGTKLEIK", "0.000204 s⁻¹"),
    ("Hu159D5-10 (antibody, V domains shown, humanized) VH: EVQLVESGGGVVQPGRSLRLSCAASGFTFSNFGMHWVRQAPGKGLEWVAYISSGSSTFYYADSVKGRFTISRDNSKNTLYLQMNSLRAEDTAVYFCARSPAYYRYGLDYWGQGTTVTVSS VL: DIVMTQSPDSLAVSLGERATINCRASQSVSSSTFSYMHWYQQKPGQPPKLLIYSSSNLESGVPDRFSGSGSGTDFTLTISSLQAEDVAVYYCQHSWEIPYTFGGGTKVEIK", "0.000488 s⁻¹"),
]

The record that follows has no koff shown yet.
Sample Hu159D5-1 (antibody, V domains shown, humanized) VH: EVQLVESGGGVVQPGRSLRLSCAASGFTFSNFGMHWVRQAPGKGLEWVAYISSGSSTFYYADSVKGRFTISRDNSKNTLYLQMNSLRAEDTAVYYCARSPAYYRYGLDYWGQGTTVTVSS VL: DIVMTQTPLSLSVTPGQPASISCRASQSVSSSTFSYMHWYQQKPGQPPQLLIYSSSNLESGVPDRFSGSGSGTDFTLKISRVEAEDVGVYYCQHSWEIPYTFGGGTKVEIK — what was its koff?
0.000294 s⁻¹
